The values you see were collected from paper PMC10144134.

biological target: UniProtKB Q9UNQ0; experiment: in vitro; details: high-five membrane vesicles, pH 6.8
Sequence (Q9UNQ0 whole entry): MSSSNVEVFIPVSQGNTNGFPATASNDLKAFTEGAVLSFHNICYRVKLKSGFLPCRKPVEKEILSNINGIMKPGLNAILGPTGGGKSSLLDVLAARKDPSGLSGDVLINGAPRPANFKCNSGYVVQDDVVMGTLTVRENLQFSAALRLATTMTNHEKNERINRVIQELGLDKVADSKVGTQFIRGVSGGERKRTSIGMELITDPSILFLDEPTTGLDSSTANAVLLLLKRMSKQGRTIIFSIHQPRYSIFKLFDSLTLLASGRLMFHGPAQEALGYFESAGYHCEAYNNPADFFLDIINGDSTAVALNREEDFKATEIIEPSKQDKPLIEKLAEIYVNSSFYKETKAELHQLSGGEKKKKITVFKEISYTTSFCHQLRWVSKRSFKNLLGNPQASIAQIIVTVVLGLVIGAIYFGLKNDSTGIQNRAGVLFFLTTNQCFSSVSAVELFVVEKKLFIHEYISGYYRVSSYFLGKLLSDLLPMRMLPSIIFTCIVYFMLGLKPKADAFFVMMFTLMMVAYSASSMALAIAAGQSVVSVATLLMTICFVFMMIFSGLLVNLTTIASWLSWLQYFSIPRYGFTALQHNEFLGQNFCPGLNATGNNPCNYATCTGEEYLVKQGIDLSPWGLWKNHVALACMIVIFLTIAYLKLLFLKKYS
PARAMETER: selectivity ratio at 20 min

Entry `COc1ccc2[nH]cc(CCNC(=O)c3cc(=O)c4c(OCc5ccccc5Br)cccc4o3)c2c1` has what selectivity ratio at 20 min?
67

* * *

biological target: P-gp (Homo sapiens, UniProt P08183); experiment: ATPase activity, High-Five P-gp total membrane vesicles
Sequence (P08183 whole entry): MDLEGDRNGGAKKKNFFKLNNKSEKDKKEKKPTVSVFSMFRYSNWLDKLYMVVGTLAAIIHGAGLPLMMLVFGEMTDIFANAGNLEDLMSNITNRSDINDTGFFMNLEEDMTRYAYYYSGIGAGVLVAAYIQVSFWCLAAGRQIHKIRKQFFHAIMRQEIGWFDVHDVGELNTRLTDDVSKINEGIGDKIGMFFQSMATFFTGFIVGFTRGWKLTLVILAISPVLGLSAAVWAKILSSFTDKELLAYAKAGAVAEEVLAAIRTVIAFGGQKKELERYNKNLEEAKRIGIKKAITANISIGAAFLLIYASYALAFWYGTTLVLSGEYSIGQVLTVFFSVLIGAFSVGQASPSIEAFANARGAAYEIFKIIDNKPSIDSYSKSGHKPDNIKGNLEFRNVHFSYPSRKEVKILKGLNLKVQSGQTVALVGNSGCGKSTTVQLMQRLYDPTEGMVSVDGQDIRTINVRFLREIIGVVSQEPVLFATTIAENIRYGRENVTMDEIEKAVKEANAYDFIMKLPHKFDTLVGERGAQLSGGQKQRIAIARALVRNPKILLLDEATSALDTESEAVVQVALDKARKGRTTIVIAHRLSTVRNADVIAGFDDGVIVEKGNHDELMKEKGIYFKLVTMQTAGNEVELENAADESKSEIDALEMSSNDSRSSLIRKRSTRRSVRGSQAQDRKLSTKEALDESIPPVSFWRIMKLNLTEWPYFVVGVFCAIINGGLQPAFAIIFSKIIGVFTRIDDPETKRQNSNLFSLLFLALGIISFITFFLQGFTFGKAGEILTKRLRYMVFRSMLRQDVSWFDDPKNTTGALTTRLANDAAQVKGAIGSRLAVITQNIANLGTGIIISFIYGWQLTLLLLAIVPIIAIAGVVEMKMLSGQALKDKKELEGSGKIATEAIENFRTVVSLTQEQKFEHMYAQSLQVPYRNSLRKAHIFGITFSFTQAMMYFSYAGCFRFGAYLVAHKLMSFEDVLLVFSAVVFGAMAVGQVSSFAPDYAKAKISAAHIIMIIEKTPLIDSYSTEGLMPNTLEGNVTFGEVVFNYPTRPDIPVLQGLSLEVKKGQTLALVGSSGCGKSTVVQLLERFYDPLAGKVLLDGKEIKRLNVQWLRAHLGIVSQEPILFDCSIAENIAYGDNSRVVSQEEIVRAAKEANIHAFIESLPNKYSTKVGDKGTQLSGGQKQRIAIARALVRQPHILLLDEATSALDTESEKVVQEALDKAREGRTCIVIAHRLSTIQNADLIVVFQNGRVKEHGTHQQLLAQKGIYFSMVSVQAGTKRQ
PARAMETER: EC50

Entry COc1ccc2[nH]cc(CCNC(=O)c3cc(=O)c4c(OCc5ccccc5Br)cccc4o3)c2c1 [C4a, chromone 4a] has what EC50?
4.3 µM
